Reported values: IC50 for IRAK4 (Homo sapiens (Human)), one per item.
Counter-ions that a name gives are not always drawn.
READOUT TYPE: IC50 (nM)

INSERT INTO measurements (compound, readout_type, quantitative_readout) VALUES
  ('CC[C@@H](C)Oc1nc2nc([C@]34CC[C@](C)(C3)OC4)cn2cc1C(=O)Nc1cccn(C2CC2)c1=O [Example 51]', 'IC50', 1.8),
  ('CC(C)Oc1cc2nc([C@]34CC[C@](C)(C3)OC4)cn2cc1C(=O)Nc1ccnn(C2CC2)c1=O [Example 75]', 'IC50', 1.6),
  ('C[C@@H]1C[C@@H]1n1cccc(NC(=O)c2cn3cc(C45COC(C)(C4)C5)nc3cc2OC2CCC2)c1=O [Example 190, trifluoroacetate]', 'IC50', 0.9),
  ('CC(C)Oc1nc2nc(C34COC(C)(C3)C4)cn2cc1C(=O)Nc1cccn([C@H]2CC2(C)C)c1=O (single isomer, unassigned) [Example 79]', 'IC50', 0.7),
  ('CC[C@@H](C)Oc1nc2nc(C34COC(C)(C3)C4)cn2cc1C(=O)Nc1cccn([C@@H]2C[C@@H]2F)c1=O (mixture of isomers) [Example 41]', 'IC50', 0.6),
  ('CC(C)Oc1cc2nc([C@H]3COCCO3)cn2cc1C(=O)Nc1cccn(C2CC2)c1=O (single isomer, unassigned) [Example 70]', 'IC50', 1.2),
  ('CC(C)Oc1cc2nc([C@@]34CC[C@@](C)(C3)OC4)cn2cc1C(=O)Nc1cccn([C@@H]2C[C@H]2F)c1=O [Example 116]', 'IC50', 0.6),
  ('CC[C@@H](C)Oc1nc2nc(C34COC(C)(C3)C4)cn2cc1C(=O)Nc1cccn(C2CC2)c1=O (single isomer, unassigned) [Example 63]', 'IC50', 0.8),
  ('CC(C)Oc1nc2nc([C@]34CC[C@](C)(C3)OC4)cn2cc1C(=O)Nc1cccn([C@H]2C[C@@H]2C)c1=O (single isomer, unassigned) [Example 142]', 'IC50', 1.2),
  ('CC(C)Oc1cc2nc([C@@]34CC[C@@](C)(C3)OC4)cn2cc1C(=O)Nc1cccn([C@H]2C[C@@H]2F)c1=O (single isomer, unassigned) [Example 117]', 'IC50', 0.7),
  ('O=C(Nc1cccn([C@@H]2C[C@@H]2F)c1=O)c1cn2cc(C34COC(C3)C4)nc2nc1OC1CCC1 (racemic) [Example 86]', 'IC50', 0.8);
